# Lookup of reported melting point keyed by entry
QUANTITY_NAME: melting point

                                   compound           result
0  COCCN(CCOC)CCOc1ccc2oc(-c3cc4cccn4cn3)cc(=NO)c2c1.Cl [Example 104]    155 to 160 °C
1  COC[C@@H]1CCCN1CCOc1ccc2oc(-c3cc4cccn4cn3)cc(=NO)c2c1.Cl [Example 96]  > 225 °C (dec.)
2  Cl.ON=c1cc(-c2cc3sccc3cn2)oc2ccc(OCCCc3cccnc3)cc12 [Example 135]    252 to 254 °C
3  CN(C)CCOc1ccc2oc(-c3cc4cccn4cn3)cc(=NO)c2c1.Cl  > 275 °C (dec.)
4  N#Cc1ccc2oc(-c3cc4ccccc4cn3)cc(=NO)c2c1 [Example 38]    280 °C (dec.)
5  CN(C)CCOc1ccc2oc(-c3cc4ccccc4cn3)cc(=NO)c2c1 (mixture of isomers) [Example 44]    203 to 205 °C
6  Cl.ON=c1cc(-c2cc3cccn3cn2)oc2cccc(OCCN3CCOCC3)c12 [Example 156]    200 to 205 °C
